- Applied conditions: human gut metagenome, 24 h, 2 µM; note: call rule not given here
Quantity name: Bacterial Biotransformation

{"Compound": "O=C(O)CCC(=O)O.O=C(O[C@H]1CN2CCC1CC2)N1CCc2ccccc2[C@@H]1c1ccccc1 [SOLIFENACIN SUCCINATE]", "Reported": "Compound metabolized"}
{"Compound": "CC(C)(C)N.CCC[C@H](N[C@@H](C)C(=O)N1[C@H](C(=O)O)C[C@@H]2CCCC[C@@H]21)C(=O)OCC", "Reported": "Compound metabolized"}
{"Compound": "CC(=O)OCC(=O)NCCCOc1cccc(CN2CCCCC2)c1 [ROXATIDINE ACETATE]", "Reported": "Compound metabolized"}
{"Compound": "C=CC[C@@H]1/C=C(\\C)C[C@H](C)C[C@H](OC)[C@H]2O[C@@](O)(C(=O)C(=O)N3CCCC[C@H]3C(=O)O[C@H](/C(C)=C/[C@@H]3CC[C@@H](O)[C@H](OC)C3)[C@H](C)[C@@H](O)CC1=O)[C@H](C)C[C@@H]2OC.O", "Reported": "Compound NOT metabolized"}
{"Compound": "CC[C@@]1(O)C(=O)OCc2c1cc1n(c2=O)Cc2cc3c(CN(C)C)c(O)ccc3nc2-1", "Reported": "Compound NOT metabolized"}

====

- Procedure text: The drug is tested on WLS-069 corresponding to human gut metagenome with ENA study accession number: PRJEB37062 and ENA sample accession number: ERS12561748 for biotransformation under anaerobic condition. The drug concentrations were measured over 9 timepoints collected between 0 and 24 hours of incubation by liquid-chromatography-coupled mass spectrometry (LC–MS)
- Applied conditions: 2 µM

{"Compound": "C=C[C@H]1CN2CC[C@H]1C[C@H]2[C@H](O)c1ccnc2ccc(OC)cc12.C=C[C@H]1CN2CC[C@H]1C[C@H]2[C@H](O)c1ccnc2ccc(OC)cc12.O.O.O=S(=O)(O)O [QUININE SULFATE]", "Bacterial Biotransformation": "Compound NOT metabolized"}
{"Compound": "Cc1cc(C)cc(OCC2CNC(=O)O2)c1 (configuration not stated) [METAXALONE]", "Bacterial Biotransformation": "Compound metabolized"}
{"Compound": "CN(C)CCOC(C)(c1ccccc1)c1ccccn1.O=C(O)CCC(=O)O (configuration not stated) [DOXYLAMINE SUCCINATE]", "Bacterial Biotransformation": "Compound NOT metabolized"}
{"Compound": "COc1ccc2c(c1)c(CC(=O)O)c(C)n2C(=O)c1ccc(Cl)cc1 [INDOMETHACIN]", "Bacterial Biotransformation": "Compound metabolized"}
{"Compound": "CC(=O)O[C@H]1C(=O)[C@@]2(C)[C@H]([C@H](OC(=O)c3ccccc3)[C@]3(O)C[C@H](OC(=O)[C@H](O)[C@@H](NC(=O)c4ccccc4)c4ccccc4)C(C)=C1C3(C)C)[C@]1(OC(C)=O)CO[C@@H]1C[C@@H]2O [PACLITAXEL]", "Bacterial Biotransformation": "Compound metabolized"}
{"Compound": "CN1[C@@H]2CC[C@H]1C[C@@H](OC(=O)c1c[nH]c3ccccc13)C2 [TROPISETRON]", "Bacterial Biotransformation": "Compound NOT metabolized"}
{"Compound": "CCCCC(=O)O[C@]1(C(=O)CO)[C@@H](C)C[C@H]2[C@@H]3CCC4=CC(=O)C=C[C@]4(C)[C@@]3(F)[C@@H](O)C[C@@]21C [BETAMETHASONE VALERATE]", "Bacterial Biotransformation": "Compound metabolized"}
{"Compound": "CN1CCC(=C2c3ccccc3CC(=O)c3sccc32)CC1.O=C(O)/C=C/C(=O)O [KETOTIFEN FUMARATE]", "Bacterial Biotransformation": "Compound NOT metabolized"}
{"Compound": "CC(=O)CCCCn1c(=O)c2c(ncn2C)n(C)c1=O [PENTOXIFYLLINE]", "Bacterial Biotransformation": "Compound NOT metabolized"}
{"Compound": "CCOC(=O)[C@H](CCc1ccccc1)N[C@@H](C)C(=O)N1Cc2ccccc2C[C@H]1C(=O)O", "Bacterial Biotransformation": "Compound metabolized"}
{"Compound": "Br.CN1CCC[C@@H]1Cc1c[nH]c2ccc(CCS(=O)(=O)c3ccccc3)cc12 [ELETRIPTAN HYDROBROMIDE]", "Bacterial Biotransformation": "Compound metabolized"}
{"Compound": "CC#CCn1c(N2CCC[C@@H](N)C2)nc2c1c(=O)n(Cc1nc(C)c3ccccc3n1)c(=O)n2C [LINAGLIPTIN]", "Bacterial Biotransformation": "Compound NOT metabolized"}
{"Compound": "Cc1ccccc1C(OCCN(C)C)c1ccccc1.O=C(O)CC(O)(CC(=O)O)C(=O)O (configuration not stated) [ORPHENADRINE CITRATE]", "Bacterial Biotransformation": "Compound NOT metabolized"}
{"Compound": "CN(C)CCc1c[nH]c2ccc(CS(=O)(=O)N3CCCC3)cc12 [ALMOTRIPTAN]", "Bacterial Biotransformation": "Compound NOT metabolized"}
{"Compound": "CN1CCN(C2=Nc3ccccc3Oc3ccc(Cl)cc32)CC1.O=C(O)CCC(=O)O [LOXAPINE SUCCINATE]", "Bacterial Biotransformation": "Compound NOT metabolized"}
{"Compound": "C#C[C@]1(OC(C)=O)CC[C@H]2[C@@H]3CCC4=CC(=O)CC[C@@H]4[C@H]3CC[C@@]21C [NORETHINDRONE ACETATE]", "Bacterial Biotransformation": "Compound metabolized"}
{"Compound": "Clc1cccc(Cl)c1N=C1NCCN1 [CLONIDINE]", "Bacterial Biotransformation": "Compound metabolized"}
{"Compound": "COC(=O)[C@H](c1ccccc1Cl)N1CCc2sccc2C1.O=S(=O)(O)O [CLOPIDOGREL BISULFATE]", "Bacterial Biotransformation": "Compound metabolized"}
{"Compound": "O=C1N=C([O-])NC1(c1ccccc1)c1ccccc1.[Na+] [PHENYTOIN SODIUM]", "Bacterial Biotransformation": "Compound metabolized"}
{"Compound": "CC(C)(C)NCC(O)c1cc(Cl)c(N)c(Cl)c1 (configuration not stated) [CLENBUTEROL]", "Bacterial Biotransformation": "Compound NOT metabolized"}
{"Compound": "COC(=O)C(c1ccccc1)C1CCCCN1 (configuration not stated) [METHYLPHENIDATE]", "Bacterial Biotransformation": "Compound NOT metabolized"}
{"Compound": "CC1Cc2ccccc2N1NC(=O)c1ccc(Cl)c(S(N)(=O)=O)c1 (configuration not stated) [INDAPAMIDE]", "Bacterial Biotransformation": "Compound NOT metabolized"}

Numbers sourced from ChEMBL document CHEMBL5724914.
